B1: Zinc finger MYM-type protein 6, residues 427 to 504; numbered along this chain, O95789 (parent)
chain: KLKCQHCNHLFATKPELLFYKGKMFLFCGKNCSDEYKKKNKVVAMCDYCKLQKIIKETVRFSGVDKPFCSEVCKFLSA

Variants of: B1
Assay: abundance fitness (aPCA) (normalised: wild type 0, dead -1); higher = more abundant; growth selection in yeast, the domain comes from the species named
Settings: Homo sapiens
Assign classes using reported abundance fitness values and the ranges bottom end = under -0.1, midrange = from -0.1 up to -0.02, top end = -0.02 and over, please.

VARIANT_DESIGNATION: K23T
ANSWER_LABEL: midrange

VARIANT_DESIGNATION: L51H
ANSWER_LABEL: top end

VARIANT_DESIGNATION: V72A
ANSWER_LABEL: top end

VARIANT_DESIGNATION: V64E
ANSWER_LABEL: top end

VARIANT_DESIGNATION: Q52L
ANSWER_LABEL: bottom end

VARIANT_DESIGNATION: C49W
ANSWER_LABEL: bottom end

VARIANT_DESIGNATION: F27D
ANSWER_LABEL: bottom end

VARIANT_DESIGNATION: G63D
ANSWER_LABEL: top end

VARIANT_DESIGNATION: F68K
ANSWER_LABEL: bottom end

VARIANT_DESIGNATION: E71A
ANSWER_LABEL: bottom end

VARIANT_DESIGNATION: L26F
ANSWER_LABEL: bottom end

VARIANT_DESIGNATION: L26P
ANSWER_LABEL: midrange

VARIANT_DESIGNATION: I54K
ANSWER_LABEL: top end

VARIANT_DESIGNATION: C49D
ANSWER_LABEL: bottom end

VARIANT_DESIGNATION: C49K
ANSWER_LABEL: bottom end

VARIANT_DESIGNATION: K39H
ANSWER_LABEL: midrange

VARIANT_DESIGNATION: K23D
ANSWER_LABEL: midrange

VARIANT_DESIGNATION: K38W
ANSWER_LABEL: bottom end

VARIANT_DESIGNATION: F25E
ANSWER_LABEL: midrange

VARIANT_DESIGNATION: V72W
ANSWER_LABEL: top end

VARIANT_DESIGNATION: G29K
ANSWER_LABEL: top end
